- Test system: Splenocyte
- PROTOCOL NOTES: Induction of IFN in C3H/HeJ mouse splenocytes at 10 nM
- Type: functional
Record form. Attribute: Activity. Fill in for each entry.
One number for each entry, in IU/ml.

{"SMILES INPUT": "CCCCNc1nc(N)c2nc(O)n(Cc3ccc(O)cc3)c2n1", "Activity [IU/ml]": 12.4}
{"SMILES INPUT": "CCCCNc1nc(N)c2nc(O)n(Cc3ccc(OC)cc3)c2n1", "Activity [IU/ml]": 6.5}
{"SMILES INPUT": "CCCCNc1nc(N)c2nc(O)n(Cc3cccnc3)c2n1", "Activity [IU/ml]": 32.5}
{"SMILES INPUT": "CCCCNc1nc(N)c2nc(O)n(Cc3cncc(C)c3)c2n1", "Activity [IU/ml]": 2.4}
{"SMILES INPUT": "CCCCNc1nc(N)c2nc(O)n(Cc3ccc(C)cc3)c2n1", "Activity [IU/ml]": 9.2}

Would you mind listing Activity for each of the following compounds?
1. CCCCNc1nc(N)c2nc(O)n(Cc3cccnc3C)c2n1
2. CCCCNc1nc(N)c2nc(O)n(Cc3ccc(F)c(F)c3)c2n1
3. CCCCNc1nc(N)c2nc(O)n(Cc3ccc(C)nc3)c2n1
4. CCCCNc1nc(N)c2nc(O)n(Cc3ccc([N+](=O)[O-])cc3)c2n1
5. CCCCNc1nc(N)c2nc(O)n(Cc3cccnc3Cl)c2n1
6. CCCCNc1nc(N)c2nc(O)n(Cc3ccc(C)nc3Cl)c2n1
7. CCCCNc1nc(N)c2nc(O)n(Cc3ccncc3)c2n1

[12.8, 6.4, 7.8, 11.6, 3.7, 8.4, 4.2]

Would you mind listing Activity for each of the following compounds?
1. CCCCNc1nc(N)c2nc(O)n(Cc3ccc(Cl)cc3)c2n1
2. CCCCNc1nc(N)c2nc(O)n(Cc3ccc(OC)nc3)c2n1
3. CCCCNc1nc(N)c2nc(O)n(Cc3cccc4ccccc34)c2n1
4. CCCCNc1nc(N)c2nc(O)n(Cc3ccc(N(C)C)nc3)c2n1

1: 8.5; 2: 13.4; 3: 2.2; 4: 9.4

---

- Tested on: Splenocyte
- PROTOCOL NOTES: Induction of IFN in C3H/HeJ mouse splenocytes at 3 nM
- Type: functional
MEASURED PARAMETER: Activity

{"SMILES INPUT": "CCCCNc1nc(N)c2nc(O)n(Cc3ccc(O)cc3)c2n1", "RESULT VALUE": "<0.5 IU/ml"}

Would you mind listing Activity for each of the following compounds?
1. CCOCc1nc2c(N)nc3ccccc3c2n1CC(C)(C)O
2. CCCCNc1nc(N)c2nc(O)n(Cc3ccc(C)nc3Cl)c2n1
3. CCCCNc1nc(N)c2nc(O)n(Cc3cccnc3Cl)c2n1
4. CCCCNc1nc(N)c2nc(O)n(Cc3ccc(F)c(F)c3)c2n1

1. 2.8 IU/ml
2. <0.5 IU/ml
3. <0.5 IU/ml
4. <0.5 IU/ml

Would you mind listing Activity for each of the following compounds?
1. CCCCNc1nc(N)c2nc(O)n(Cc3ccc(F)cc3)c2n1
2. CCCCNc1nc(N)c2nc(O)n(Cc3ccc(C)nc3)c2n1
3. CCCCNc1nc(N)c2nc(O)n(Cc3ccc(C(F)(F)F)cc3)c2n1

<0.5 IU/ml
4.4 IU/ml
<0.5 IU/ml
